- ASSAYED SYSTEM: Alpha-2C adrenergic receptor (Homo sapiens)
- EXPERIMENT SUMMARY: compounds altering alpha2C-coupled GIRK flux – cell-based, HEK293 alpha2C/GIRK1/2, thallium flux, primary screen (AID 624);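 also: slope of fluorescence ratio to pre-addition baseline per second over 15 to 24 s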
- PROTOCOL CONDITIONS: thallium flux BTC fluorescence, at 10 µM, actives lie on both sides
Class definitions on slope: I = under 0.006, II = from 0.006 up to 0.007, III = 0.007 and over

Some entries whose results are on file:
# MOLECULE, CLASS ASSIGNMENT
records = [
    ("O=C(COC(=O)C12CC3CC(CC(O)(C3)C1)C2)N1CCN(S(=O)(=O)c2ccc(Cl)cc2)CC1", "II"),
    ("COc1ccccc1C(=O)N1CCN(C(=O)c2ccncc2)CC1", "I"),
    ("CC(C)Cc1cc(C(=O)Nc2c(F)cc(F)cc2Br)no1", "I"),
    ("CC(C)COC(=O)C1C2C=CC3(CN(C(C)c4ccc(Br)cc4)C(=O)C13)O2 (configuration not stated)", "III"),
    ("Cc1ccc(N2CCN(C(=S)c3ccc(N(C)C)cc3)CC2)cc1", "I"),
]

Incoming: Hi there! Could you help me figure out the category for `N#CCCN1CCN(S(=O)(=O)c2ccc(S(=O)(=O)NC3CCCCC3)cc2)CC1` please?
Outgoing: II

Incoming: Hi there! Could you help me figure out the category for O=C(CN1C(=O)C2C3C=CC(C3)C2C1=O)NCc1ccc2c(c1)OCO2 (configuration not stated) please?
Outgoing: II

Incoming: Hi there! Could you help me figure out the category for `Cn1c(/C=N/n2cnnc2)nc2ccccc21` please?
Outgoing: I

Incoming: Hi there! Could you help me figure out the category for COc1ccccc1N1CCN(C(=O)C2CCCO2)CC1 (configuration not stated) please?
Outgoing: I

Incoming: Hi there! Could you help me figure out the category for `COc1ccc(N2CCN(Cc3nc(-c4ccc(Cl)cc4Cl)no3)CC2)cc1` please?
Outgoing: I

###

- ASSAYED SYSTEM: Voltage-gated potassium channel subunit beta-2 (Rattus norvegicus)
- EXPERIMENT SUMMARY: inhibitors of rat Kvbeta2 reductase activity – biochemical, NADPH fluorescence, primary screen (AID 622);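 also: slope of raw intensity against log time taken from 70 to 1610 s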
- PROTOCOL CONDITIONS: recombinant KvBeta, 4-cyanobenzaldehyde reduction, at 10 µM
Calls of active or inactive are those of the source.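 Rule for the calls: active = fluorescence slope higher than the sample average by over 3 SD (cut at about -0.22 in these data, passing the limit was not always enough); inactive = the rest.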
# output must be one of 1 = active, 0 = inactive

# COMPOUND, CLASS ASSIGNMENT
rows = [
    ("CCOc1ccccc1NC(=O)CSc1nnc2c(CC)c(C)nc(N)n12", 0),
    ("CCOC(=O)Cc1csc(NC(=O)CN(C)S(=O)(=O)c2ccc3c(c2)CCC(=O)N3)n1", 0),
]

Incoming: How did this test come out for CC1CN(C(=O)c2cc3cc(Cl)cc(Cl)c3oc2=O)CC(C)O1 (stereo unspecified) ?
Outgoing: 0

Incoming: How did this test come out for `CCOc1ccc(-c2cc(C(=O)N3CCN(c4ccccn4)CC3)c3ccccc3n2)cc1` ?
Outgoing: 0

Incoming: How did this test come out for `Cn1c(=O)c(=O)n(C)c2cc(S(=O)(=O)N3CCCCC3)ccc21` ?
Outgoing: 0

Incoming: How did this test come out for `CCOC(=O)c1nc2sc3c(c2c(=O)[nH]1)CCCC3` ?
Outgoing: 1

###

# key: entry, value: nuclei count
- EXPERIMENT SUMMARY: endothelial E-selectin expression blockers – imaging, HUVEC, immunofluorescence, MLSMR starter and 10KST1 sets, primary screen (AID 487);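 also: 100% = median nuclei count of all wells on the same plate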
- PROTOCOL CONDITIONS: HUVEC TNFalpha-induced E-selectin immunofluorescence imaging, at 2 µM; measured here: cell number, toxicity
Please respond with the number in % and leave the unit unwritten.

# MOLECULE, QUANTITY KIND, ENDPOINT VALUE
measured = [
    ("Cc1c(C(=O)NC2CCCc3ccccc32)oc2ccc(S(=O)(=O)N3CCOCC3)cc12 (stereo not given)", "nuclei count", 110),
    ("CCN(CC)c1ccc2cc(NC(=O)CCC(=O)O)c(=O)oc2c1", "nuclei count", 101),
    ("COc1ccc(NC(=O)CSc2nc3c(c(=O)n2-c2ccccc2OC)SCC3)cc1", "nuclei count", 106),
    ("CCN1CCN(c2ncnc3c2oc2nc(C)c4c(c23)CC(C)(C)OC4)CC1", "nuclei count", 116),
]

Incoming: Return nuclei count for the following molecule: `Cc1ccc2cc(CN(Cc3ccc(F)cc3)Cc3nnnn3C3CCCC3)c(=O)[nH]c2c1`
Outgoing: 98.8

Incoming: Return nuclei count for the following molecule: `CCCCn1c(SCC(=O)N2CC(=O)Nc3ccccc32)nnc1-c1ccoc1C`
Outgoing: 174

Incoming: Return nuclei count for the following molecule: O=C(CSc1nnc(Cn2c(=O)sc3ccccc32)n1-c1ccccc1)NCC1CCCO1 (stereo not given)
Outgoing: 116

Incoming: Return nuclei count for the following molecule: COCCn1nnnc1C(C(C)C)N1CCN(C(=O)c2ccco2)CC1 (stereo not given)
Outgoing: 121

Incoming: Return nuclei count for the following molecule: `O=C(CN1CCN(Cc2ccccc2F)C1=O)NCc1cccnc1`
Outgoing: 115

Incoming: Return nuclei count for the following molecule: `Cc1noc(/C=C/N(C)C)c1S(=O)(=O)N1CCc2ccccc21`
Outgoing: 115

###

- EXPERIMENT SUMMARY: reduction of polyQ htt aggregates in cells – imaging, exon1htt(103Q)mCFP cells, high-content imaging, primary screen (AID 483);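 also: compound exposure lasted 3 days before fixation; percent of the per-plate median nuclei count of sample wells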
- PROTOCOL CONDITIONS: exon1htt(103Q)mCFP cell line, aggregate imaging, at 2 µM; measured here: cell count, toxicity
QUANTITY KIND: nuclei count

Worked cases, answers included:
# COMPOUND, QUANTITY KIND, ENDPOINT VALUE
data = [
    ("CCc1nc2sc(C)c(C)c2c(=O)n1CCO", "nuclei count", "81.4%"),
    ("O=C(c1ccc2nc(N3CCCCC3)sc2c1)N1CCN(c2ccccn2)CC1", "nuclei count", "99.9%"),
    ("Cc1ccc(C)c(N2CCN(S(=O)(=O)c3ccc4c(c3)OCCO4)CC2)c1", "nuclei count", "134%"),
    ("Cc1cc(C)nc(/N=C2\\NC(=O)CC(C(=O)O)N2c2ccc(Cl)cc2)n1 (stereo unspecified)", "nuclei count", "101%"),
    ("COc1ccc(N(CC(=O)Nc2ccc3c(c2)OCO3)S(=O)(=O)c2c(C)nn(C)c2C)cc1", "nuclei count", "51%"),
    ("CC1=C(C(=O)NCc2ccco2)C2(CCC(C)CC2)OC1=O (stereo unspecified)", "nuclei count", "62.3%"),
    ("Cc1[nH]nc(N=CC2=C(O)CC(C)(C)CC2=O)c1-c1ccccc1", "nuclei count", "85.2%"),
    ("CC(=O)NC(CCS(C)(=O)=O)C(=O)Nc1cccc(C)c1 (stereo unspecified)", "nuclei count", "110%"),
    ("CSc1nc(=NC(C)=O)ss1", "nuclei count", "106%"),
    ("CCOC(=O)c1cccc(NC(=O)CSc2nnc(-c3cccnc3)n2C)c1", "nuclei count", "97.6%"),
]

Incoming: Return nuclei count for the following compound: `Cc1ccccc1N1C(N)=NC(N)=NC1(C)C`
Outgoing: 103%

Incoming: Return nuclei count for the following compound: `c1ccc(Cn2ncc3c2ncn2c(-c4ccncc4)nnc32)cc1`
Outgoing: 117%

Incoming: Return nuclei count for the following compound: CC(=O)C1=C(C)NC(SCSc2ccccc2)=C(C#N)C1c1cccnc1 (stereo unspecified)
Outgoing: 87.9%

Incoming: Return nuclei count for the following compound: `CCN(CC)S(=O)(=O)c1ccc(F)c(C(=O)NCCC(C)C)c1`
Outgoing: 79.2%

Incoming: Return nuclei count for the following compound: `CSc1ccccc1N=CC1=C(O)CC(C)(C)CC1=O`
Outgoing: 104%

Incoming: Return nuclei count for the following compound: `CCOC(=O)c1cc2c(=O)n3ccccc3nc2n(CCCOC)c1=NC(C)=O`
Outgoing: 94.4%

Incoming: Return nuclei count for the following compound: O=C(C1CCC(CNc2c(N3CCCCC3)c(=O)c2=O)CC1)N1CCc2ccccc2C1 (stereo unspecified)
Outgoing: 95.1%

Incoming: Return nuclei count for the following compound: CCOc1ccc(C2CC(c3cccc(OC)c3)Nc3nc(N)nn32)cc1 (stereo unspecified)
Outgoing: 100%

###

# key: entry, value: inhibition
- EXPERIMENT SUMMARY: blockers of RIG-like receptor reporter activation – cell-based, Sendai virus stimulus, luciferase, 10K MLSCN set, TLR/RLR signaling modifier project, primary screen (AID 602276);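 also: firefly luciferase from ISG56 promoter only with Renilla not read in this screen; 0% = Sendai virus plus DMSO and 100% = medium plus DMSO without virus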
- PROTOCOL CONDITIONS: HEK293 RL24 IRF3 luciferase reporter, at 10 µM, stronger effect = higher value
Please respond with the number in % and leave the unit unwritten.

# COMPOUND, QUANTITY KIND, UNIT OF MEASUREMENT, ENDPOINT VALUE
records = [
    ("CCOC(=O)c1ccc(N2Cc3cc(C)c(C)cc3C2)cc1O", "inhibition", "%", -26.7),
]

Incoming: Return inhibition for the following compound: `Cc1ccc2c(c1)N(CC(=O)Nc1ccc3c(c1)OCCO3)C(=O)CO2`
Outgoing: 38.1

Incoming: Return inhibition for the following compound: `Cc1ccc(Cl)cc1N1CCN(C(=O)CN2C(=O)c3cccc4cccc2c34)CC1`
Outgoing: 9.95

Incoming: Return inhibition for the following compound: O=C(COC(=O)c1cccc(S(=O)(=O)N2CCc3ccccc32)c1)NC1CCS(=O)(=O)C1 (stereo not given)
Outgoing: 3.1

Incoming: Return inhibition for the following compound: COc1ccc(NC2c3ncccc3C(=O)N2Cc2ccccc2)c(OC)c1 (stereo not given)
Outgoing: 7.6
